# credit: ChEMBL document CHEMBL1137517

// Ki collected for 5-hydroxytryptamine receptor 2A (Rattus norvegicus)
READOUT_LABEL: Ki (nM)

COMPOUND	CENSOR_SYMBOL	REPORTED
O=C(CCCN1c2ccccc2C2CC3CNCCN3CC21)c1ccc(F)cc1 (mixture of isomers)	>	100000
O=C(CCCN1CCN2Cc3[nH]c4ccccc4c3CC2C1)c1ccc(F)cc1 (configuration not stated)	=	24

====

- TARGET_OR_TEST_SYSTEM: D(1A) dopamine receptor (Rattus norvegicus, UniProt P18901)
- Sequence (P18901 whole entry): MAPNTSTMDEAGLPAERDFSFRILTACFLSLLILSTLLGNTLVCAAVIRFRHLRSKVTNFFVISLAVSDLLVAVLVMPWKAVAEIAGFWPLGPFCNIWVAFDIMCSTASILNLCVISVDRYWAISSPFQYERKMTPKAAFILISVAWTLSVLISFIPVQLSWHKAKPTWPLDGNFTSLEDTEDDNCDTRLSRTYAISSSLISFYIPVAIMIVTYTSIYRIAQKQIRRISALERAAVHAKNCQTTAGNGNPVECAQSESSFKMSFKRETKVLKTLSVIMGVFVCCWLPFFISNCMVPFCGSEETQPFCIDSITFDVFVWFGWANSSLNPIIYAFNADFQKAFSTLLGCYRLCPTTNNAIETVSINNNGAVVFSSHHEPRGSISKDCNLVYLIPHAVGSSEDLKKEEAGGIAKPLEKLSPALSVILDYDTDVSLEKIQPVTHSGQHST
- ASSAY: Displacement of [3H]SCH-23390 from dopamine D1 receptor in rat brain
pKi: −log10 of the molar value.
Documented pKi across a set of molecules
READOUT_LABEL: pKi

MOLECULE	READOUT_LABEL	REPORTED
O=C(CCCN1CCN2CC3C(CC2C1)c1ccccc1N3CCCC(=O)c1ccc(F)cc1)c1ccc(F)cc1 (configuration not stated)	pKi	9.19
O=C(CCCN1CCN2Cc3[nH]c4ccccc4c3CC2C1)c1ccc(F)cc1 (configuration not stated)	pKi	6.37
